Test Target: T1, human tissue factor pathway inhibitor (TFPI) (human, UniProt P10646 29-304, limits assumed)
T1 construct: bought; also called hTFPI; human TFPI
T1 sequence (looked up): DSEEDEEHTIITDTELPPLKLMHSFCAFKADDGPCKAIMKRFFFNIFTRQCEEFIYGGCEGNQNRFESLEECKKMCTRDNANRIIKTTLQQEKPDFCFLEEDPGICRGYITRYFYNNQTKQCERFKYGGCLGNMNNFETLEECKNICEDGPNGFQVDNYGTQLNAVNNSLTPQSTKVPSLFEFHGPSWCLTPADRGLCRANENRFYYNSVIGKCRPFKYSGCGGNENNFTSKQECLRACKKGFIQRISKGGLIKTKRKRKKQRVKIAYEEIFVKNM
Measurement Description: competitive ELISA
Measured Property: variant/HC_D62R (ratio)
Could you give me the number in ratio? Just the number is fine.

Please review the following examples before continuing.
Binder: 4B7 HC D62R+H107M+Y112D/LC F31M+D33F (Fab, V domains shown) VH: QVQLQQSGPGLVKPSQTLSLTCAISGDSVSSNSAAWSWIRQSPGRGLEWLGIIYKRSKWYNRYAVSVKSRITINPDTSKNQFSLQLNSVTPEDTAVYYCARWHSDKMWGFDDWGQGTLVTVSS VL: DIVMTQSPLSLPVTPGEPASISCRSSQSLVMSFGNTYLNWYLQKPGQSPQLLIYKGSNRASGVPDRFSGSGSGTDFTLKISRVEAEDVGVYYCQQYDSYPLTFGQGTKVEIKR
Reported Result: 24.2
--
Binder: 4B7 HC N32D+D62Q+Y112D/LC F31I+D33F+N35I+K44R (Fab, V domains shown) VH: QVQLQQSGPGLVKPSQTLSLTCAISGDSVSSDSAAWSWIRQSPGRGLEWLGIIYKRSKWYNQYAVSVKSRITINPDTSKNQFSLQLNSVTPEDTAVYYCARWHSDKHWGFDDWGQGTLVTVSS VL: DIVMTQSPLSLPVTPGEPASISCRSSQSLVISFGITYLNWYLQRPGQSPQLLIYKGSNRASGVPDRFSGSGSGTDFTLKISRVEAEDVGVYYCQQYDSYPLTFGQGTKVEIKR
Reported Result: 22.8
--
Binder: 4B7 HC N32D+D62R+Y112D/LC F31H+S32R+D33F+N35I+D97T (Fab, V domains shown) VH: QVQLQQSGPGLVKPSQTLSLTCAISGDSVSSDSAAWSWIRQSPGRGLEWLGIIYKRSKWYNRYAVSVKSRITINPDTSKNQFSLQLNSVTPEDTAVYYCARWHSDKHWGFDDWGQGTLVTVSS VL: DIVMTQSPLSLPVTPGEPASISCRSSQSLVHRFGITYLNWYLQKPGQSPQLLIYKGSNRASGVPDRFSGSGSGTDFTLKISRVEAEDVGVYYCQQYTSYPLTFGQGTKVEIKR
Reported Result: 22.1
--
Binder: 4B7 HC N32D+K55Y+D62R+Y112D/LC S32R+D33F+N35I+D97T (Fab, V domains shown) VH: QVQLQQSGPGLVKPSQTLSLTCAISGDSVSSDSAAWSWIRQSPGRGLEWLGIIYYRSKWYNRYAVSVKSRITINPDTSKNQFSLQLNSVTPEDTAVYYCARWHSDKHWGFDDWGQGTLVTVSS VL: DIVMTQSPLSLPVTPGEPASISCRSSQSLVFRFGITYLNWYLQKPGQSPQLLIYKGSNRASGVPDRFSGSGSGTDFTLKISRVEAEDVGVYYCQQYTSYPLTFGQGTKVEIKR
Reported Result: 25.6
--
Binder: 4B7 HC N32D+D62R+H103D/LC F31I+D33R (Fab, V domains shown) VH: QVQLQQSGPGLVKPSQTLSLTCAISGDSVSSDSAAWSWIRQSPGRGLEWLGIIYKRSKWYNRYAVSVKSRITINPDTSKNQFSLQLNSVTPEDTAVYYCARWDSDKHWGFDYWGQGTLVTVSS VL: DIVMTQSPLSLPVTPGEPASISCRSSQSLVISRGNTYLNWYLQKPGQSPQLLIYKGSNRASGVPDRFSGSGSGTDFTLKISRVEAEDVGVYYCQQYDSYPLTFGQGTKVEIKR
Reported Result: 13.6

**Q:** Consider the binder 4B7 HC N32D+D62R+H107M+Y112D/LC S32R+D33F+N35T (Fab, V domains shown) VH: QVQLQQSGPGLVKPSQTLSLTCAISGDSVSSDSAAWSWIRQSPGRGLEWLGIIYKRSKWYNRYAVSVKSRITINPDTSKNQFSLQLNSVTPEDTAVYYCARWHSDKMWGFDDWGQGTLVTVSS VL: DIVMTQSPLSLPVTPGEPASISCRSSQSLVFRFGTTYLNWYLQKPGQSPQLLIYKGSNRASGVPDRFSGSGSGTDFTLKISRVEAEDVGVYYCQQYDSYPLTFGQGTKVEIKR and give its measured variant/HC_D62R.
**A:** 29.2

**Q:** Consider the binder 4B7 HC N32D+D62R+H107M+Y112D/LC F31M+S32R+D33F+D97T (Fab, V domains shown) VH: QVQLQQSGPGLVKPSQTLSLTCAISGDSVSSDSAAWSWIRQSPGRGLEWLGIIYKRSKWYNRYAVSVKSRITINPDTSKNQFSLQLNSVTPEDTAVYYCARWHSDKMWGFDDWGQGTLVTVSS VL: DIVMTQSPLSLPVTPGEPASISCRSSQSLVMRFGNTYLNWYLQKPGQSPQLLIYKGSNRASGVPDRFSGSGSGTDFTLKISRVEAEDVGVYYCQQYTSYPLTFGQGTKVEIKR and give its measured variant/HC_D62R.
**A:** 21.9

**Q:** Consider the binder 4B7 HC N32D+D62Q+H107M+Y112D/LC D33R+N35T (Fab, V domains shown) VH: QVQLQQSGPGLVKPSQTLSLTCAISGDSVSSDSAAWSWIRQSPGRGLEWLGIIYKRSKWYNQYAVSVKSRITINPDTSKNQFSLQLNSVTPEDTAVYYCARWHSDKMWGFDDWGQGTLVTVSS VL: DIVMTQSPLSLPVTPGEPASISCRSSQSLVFSRGTTYLNWYLQKPGQSPQLLIYKGSNRASGVPDRFSGSGSGTDFTLKISRVEAEDVGVYYCQQYDSYPLTFGQGTKVEIKR and give its measured variant/HC_D62R.
**A:** 23.7

**Q:** Consider the binder 4B7 HC N32D+D62R+H107M+Y112D/LC F31M+S32R+D33R+N35I+D97T (Fab, V domains shown) VH: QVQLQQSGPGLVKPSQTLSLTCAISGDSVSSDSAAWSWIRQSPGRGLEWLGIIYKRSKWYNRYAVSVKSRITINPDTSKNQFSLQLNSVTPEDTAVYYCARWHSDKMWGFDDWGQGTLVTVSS VL: DIVMTQSPLSLPVTPGEPASISCRSSQSLVMRRGITYLNWYLQKPGQSPQLLIYKGSNRASGVPDRFSGSGSGTDFTLKISRVEAEDVGVYYCQQYTSYPLTFGQGTKVEIKR and give its measured variant/HC_D62R.
**A:** 16.9

**Q:** Consider the binder 4B7 HC N32D+D62S+H107M+Y112D/LC S32R+D33R+N35T (Fab, V domains shown) VH: QVQLQQSGPGLVKPSQTLSLTCAISGDSVSSDSAAWSWIRQSPGRGLEWLGIIYKRSKWYNSYAVSVKSRITINPDTSKNQFSLQLNSVTPEDTAVYYCARWHSDKMWGFDDWGQGTLVTVSS VL: DIVMTQSPLSLPVTPGEPASISCRSSQSLVFRRGTTYLNWYLQKPGQSPQLLIYKGSNRASGVPDRFSGSGSGTDFTLKISRVEAEDVGVYYCQQYDSYPLTFGQGTKVEIKR and give its measured variant/HC_D62R.
**A:** 19.6
